- PROCEDURE_DETAILS: Transfection of CV-1 cells with ODN1 and toxicity (Example 22)
- Assay type: cell-based, African green monkey
- CONDITION_INFO: monkey, cv-1 cells; 10.0 μg lipid
- Procedure: Lipids 35, 52, 54 and 55 were each prepared using a 2:1 lipid:DOPE molar ratio as follows. Two molar equivalents of each lipid in CHCl3 and one equivalent of DOPE in CHCl3 was dried under reduced pressure by rotovap at room temperature. Deionized water was then added to give 1 mg/mL of total lipid. 10 mL of water containing 10 mg of lipid was vortexed for 5 minutes in a 100 mL round bottom flask. 2 mL aliquots were then used to prepare lipid suspensions for complexing with ODN1. […]
READOUT_TYPE: cytotoxicity at 6 h

CCCCCCCCCCCCCCN(CCCCCCCCCCCCCC)C(=O)CNC(=O)[C@@H](N)CCCNC(=N)NC(=O)OC(C)(C)C [Compound 35] = > 40%

Fill blank: measured cytotoxicity at 6 h of the compound CCCCCCCCCCCCCCN(CCCCCCCCCCCCCC)C(=O)CNC(=O)[C@@H](N)CCCNC(=N)N [Compound 55] is ____. > 40%

Just for reference, patent US5705693A is where these values come from.
